Tested on: spike-FP12 peptide
Type: binding, SARS-CoV-2
Count (read counts of phage display binding to FP) strictly less than 5 = true. Otherwise false.

Report whether reported Count (read counts of phage display binding to FP) is lower than 5 (strictly) for TLPFGDVEYVDLDAFL
false

Report whether reported Count (read counts of phage display binding to FP) is lower than 5 (strictly) for GSSYAEMEVMKMIMTL
false

Report whether reported Count (read counts of phage display binding to FP) is lower than 5 (strictly) for NFRLSEHRQALAAAKH
true

Report whether reported Count (read counts of phage display binding to FP) is lower than 5 (strictly) for HPNIKRVTPQRKVFRS
true

Report whether reported Count (read counts of phage display binding to FP) is lower than 5 (strictly) for QLEHVKLFMQDLSAML
false

Report whether reported Count (read counts of phage display binding to FP) is lower than 5 (strictly) for GPDRNFRLSEHRQALA
false

Report whether reported Count (read counts of phage display binding to FP) is lower than 5 (strictly) for DTLLPTQQAEVLHPVV
false
